Measured log10(Ki) (UniProtKB P31645)
Sequence (P31645 whole entry): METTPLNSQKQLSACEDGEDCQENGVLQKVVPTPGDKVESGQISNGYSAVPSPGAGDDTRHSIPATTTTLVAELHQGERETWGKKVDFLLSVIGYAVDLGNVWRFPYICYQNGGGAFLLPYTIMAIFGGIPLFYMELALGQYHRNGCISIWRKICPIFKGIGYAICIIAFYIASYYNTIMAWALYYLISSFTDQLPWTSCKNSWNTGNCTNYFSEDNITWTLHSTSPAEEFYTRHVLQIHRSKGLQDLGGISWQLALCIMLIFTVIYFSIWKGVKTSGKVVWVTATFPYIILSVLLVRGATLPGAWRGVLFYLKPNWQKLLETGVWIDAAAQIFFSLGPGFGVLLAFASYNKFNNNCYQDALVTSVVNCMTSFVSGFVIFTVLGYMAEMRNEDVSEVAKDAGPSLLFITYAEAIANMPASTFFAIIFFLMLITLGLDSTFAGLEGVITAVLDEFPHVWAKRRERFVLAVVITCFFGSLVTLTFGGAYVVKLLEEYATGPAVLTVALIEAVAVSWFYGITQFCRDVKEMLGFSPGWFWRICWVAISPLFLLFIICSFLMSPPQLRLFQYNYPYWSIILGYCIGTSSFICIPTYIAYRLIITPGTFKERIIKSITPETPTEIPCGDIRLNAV
Please keep in mind that the values are log10 of Ki expressed in nM.

Example entries and their recorded answers appear below.
{"columns": ["compound", "experimental_result"],
 "data": [
  ["OC1(c2ccc(Cl)cc2)c2ccc3ccccc3c2C2=NCCN21 (configuration not stated)", 2.35],
  ["OC1(c2ccc3ccccc3c2)c2ccccc2C2=NCCN21 (configuration not stated)", 0.36],
  ["OC1(c2ccc(Cl)cc2)c2ccccc2C2=N[C@H]3CCCC[C@@H]3N21 (some centres not stated)", 2.78],
  ["OC1(c2ccc(Cl)cc2)c2ccccc2C2=NCCN21 (configuration not stated)", 1.70],
  ["OC1(c2ccc(Cl)cc2)c2ccccc2C2=NCCCN21 (configuration not stated)", 1.59],
  ["OC1(c2ccc(Cl)cc2)c2ccc3ccccc3c2C2=NCCCN21 (configuration not stated)", 0.74]
]}

Requested read-out log10(Ki), target or system UniProtKB P31645, entry OC1(c2ccc3ccccc3c2)c2ccc3ccccc3c2C2=NCCN21 (configuration not stated)
1.04
